For each record, write down the corresponding MIC.
- System: Escherichia coli
- ASSAY_SUMMARY: Antimicrobial activity against Escherichia coli ATCC 9637 after 24 hrs by standard broth microdilution method
- Format: functional
- DETAILS: ATCC 9637, 24 h
Record the value in µg/mL, omitting the unit from your answer.

Query for Escherichia coli: what MIC does the record show for Clc1cccc(/N=C(\NCCNc2ccnc3cc(Cl)ccc23)Nc2ccc(Oc3cc(Cl)ccc3Cl)cc2)c1 ?
6.25

Query for Escherichia coli: what MIC does the record show for COc1ccc(Oc2ccc(N/C(=N/c3ccccc3)NCCNc3ccnc4cc(Cl)ccc34)cc2)cc1 ?
6.25

Query for Escherichia coli: what MIC does the record show for COC(=O)/C(C)=C/c1ccc(Oc2ccc(N/C(=N/c3ccccc3)NCCCCNc3ccnc4cc(Cl)ccc34)cc2)cc1 ?
25

Query for Escherichia coli: what MIC does the record show for COc1ccc(Oc2ccc(N/C(=N/c3ccc(Cl)cc3)NCCCCNc3ccnc4cc(Cl)ccc34)cc2)cc1 ?
6.25

----------
- Test system: Cryptococcus neoformans
- ASSAY_SUMMARY: Antifungal activity against Cryptococcus neoformans clinical isolate after 24 to 48 hrs by standard broth microdilution method
- Type: functional
MEASURED_PARAMETER: MIC (µg/mL)
Record the value in µg/mL, omitting the unit from your answer.

For the compound COC(=O)/C(C)=C/c1ccc(Oc2ccccc2N/C(=N/c2ccc(Cl)cc2)NCCCNc2ccnc3cc(Cl)ccc23)cc1 , what MIC is on record?
50

For the compound COc1ccc(Oc2ccccc2N/C(=N/c2ccc(Cl)cc2)NCCNc2ccnc3cc(Cl)ccc23)cc1 , what MIC is on record?
25

For the compound COC(=O)/C(C)=C/c1ccc(Oc2ccccc2N/C(=N/c2cccc(Cl)c2)NCCNc2ccnc3cc(Cl)ccc23)cc1 , what MIC is on record?
25

For the compound COC(=O)/C(C)=C/c1ccc(Oc2ccc(N/C(=N/c3ccc(Cl)cc3)NCCCCNc3ccnc4cc(Cl)ccc34)cc2)cc1 , what MIC is on record?
6.25

For the compound COc1ccc(Oc2ccccc2N/C(=N/c2cccc(Cl)c2)NCCCCNc2ccnc3cc(Cl)ccc23)cc1 , what MIC is on record?
50

For the compound COC(=O)/C(C)=C/c1ccc(Oc2ccc(N/C(=N/c3ccccc3)NCCCCNc3ccnc4cc(Cl)ccc34)cc2)cc1 , what MIC is on record?
25

For the compound COC(=O)/C(C)=C/c1ccc(Oc2ccc(N/C(=N/c3cccc(Cl)c3)NCCNc3ccnc4cc(Cl)ccc34)cc2)cc1 , what MIC is on record?
50

For the compound Clc1ccc(Cl)c(Oc2ccccc2N/C(=N/c2ccccc2)NCCCNc2ccnc3cc(Cl)ccc23)c1 , what MIC is on record?
25

For the compound COc1ccc(Oc2ccc(N/C(=N/c3ccc(Cl)cc3)NCCNc3ccnc4cc(Cl)ccc34)cc2)cc1 , what MIC is on record?
25

For the compound COc1ccc(Oc2ccc(N/C(=N/c3ccccc3)NCCNc3ccnc4cc(Cl)ccc34)cc2)cc1 , what MIC is on record?
50

For the compound Clc1ccc(Cl)c(Oc2ccc(N/C(=N/c3ccccc3)NCCCNc3ccnc4cc(Cl)ccc34)cc2)c1 , what MIC is on record?
6.25

For the compound COc1ccc(Oc2ccccc2N/C(=N/c2ccc(Cl)cc2)NCCCNc2ccnc3cc(Cl)ccc23)cc1 , what MIC is on record?
50

For the compound COc1ccc(Oc2ccc(N/C(=N/c3ccc(Cl)cc3)NCCCCNc3ccnc4cc(Cl)ccc34)cc2)cc1 , what MIC is on record?
25

For the compound Clc1ccc(Cl)c(Oc2ccc(N/C(=N/c3ccccc3)NCCCCNc3ccnc4cc(Cl)ccc34)cc2)c1 , what MIC is on record?
25

For the compound COc1ccc(Oc2ccccc2N/C(=N/c2ccc(Cl)cc2)NCCCCNc2ccnc3cc(Cl)ccc23)cc1 , what MIC is on record?
50

For the compound COC(=O)/C(C)=C/c1ccc(Oc2ccc(N/C(=N/c3ccccc3)NCCNc3ccnc4cc(Cl)ccc34)cc2)cc1 , what MIC is on record?
12.5

For the compound Clc1ccc(/N=C(\NCCCCNc2ccnc3cc(Cl)ccc23)Nc2ccc(Oc3cc(Cl)ccc3Cl)cc2)cc1 , what MIC is on record?
12.5

For the compound COc1ccc(Oc2ccc(N/C(=N/c3cccc(Cl)c3)NCCCCNc3ccnc4cc(Cl)ccc34)cc2)cc1 , what MIC is on record?
12.5

For the compound COc1ccc(Oc2ccc(N/C(=N/c3ccccc3)NCCCNc3ccnc4cc(Cl)ccc34)cc2)cc1 , what MIC is on record?
25

For the compound COc1ccc(Oc2ccc(N/C(=N/c3ccccc3)NCCCCNc3ccnc4cc(Cl)ccc34)cc2)cc1 , what MIC is on record?
25

For the compound Clc1cccc(/N=C(\NCCCNc2ccnc3cc(Cl)ccc23)Nc2ccccc2Oc2cc(Cl)ccc2Cl)c1 , what MIC is on record?
50

----------
- ASSAY_SUMMARY: Selectivity index, ratio of IC50 for african green monkey Vero cells to IC50 for chloroquine-sensitive Plasmodium falciparum 3D7
- Type: toxicity, cell-based
- DETAILS: read-out: Ratio IC50
Would you please tag the item 1 (yes) when its selectivity ratio is 100 or above, and 0 (no) when it is below?

Exam item: decide whether the reported selectivity ratio for COC(=O)/C(C)=C/c1ccc(Oc2ccc(N/C(=N/c3cccc(Cl)c3)NCCNc3ccnc4cc(Cl)ccc34)cc2)cc1 is at least 100.
0 (no)

Exam item: decide whether the reported selectivity ratio for COc1ccc(Oc2ccccc2N/C(=N/c2cccc(Cl)c2)NCCCCNc2ccnc3cc(Cl)ccc23)cc1 is at least 100.
1 (yes)

Exam item: decide whether the reported selectivity ratio for COc1ccc(Oc2ccccc2N/C(=N/c2ccc(Cl)cc2)NCCCNc2ccnc3cc(Cl)ccc23)cc1 is at least 100.
1 (yes)

Exam item: decide whether the reported selectivity ratio for COc1ccc(Oc2ccc(N/C(=N/c3ccccc3)NCCCCNc3ccnc4cc(Cl)ccc34)cc2)cc1 is at least 100.
0 (no)

Exam item: decide whether the reported selectivity ratio for COC(=O)/C(C)=C/c1ccc(Oc2ccc(N/C(=N/c3ccccc3)NCCNc3ccnc4cc(Cl)ccc34)cc2)cc1 is at least 100.
1 (yes)

Exam item: decide whether the reported selectivity ratio for COc1ccc(Oc2ccc(N/C(=N/c3ccc(Cl)cc3)NCCCCNc3ccnc4cc(Cl)ccc34)cc2)cc1 is at least 100.
0 (no)

Exam item: decide whether the reported selectivity ratio for COc1ccc(Oc2ccccc2N/C(=N/c2ccc(Cl)cc2)NCCCCNc2ccnc3cc(Cl)ccc23)cc1 is at least 100.
0 (no)

Exam item: decide whether the reported selectivity ratio for COC(=O)/C(C)=C/c1ccc(Oc2ccccc2N/C(=N/c2ccc(Cl)cc2)NCCNc2ccnc3cc(Cl)ccc23)cc1 is at least 100.
0 (no)

Exam item: decide whether the reported selectivity ratio for COC(=O)/C(C)=C/c1ccc(Oc2ccc(N/C(=N/c3cccc(Cl)c3)NCCCNc3ccnc4cc(Cl)ccc34)cc2)cc1 is at least 100.
0 (no)

Exam item: decide whether the reported selectivity ratio for Clc1cccc(/N=C(\NCCCCNc2ccnc3cc(Cl)ccc23)Nc2ccccc2Oc2cc(Cl)ccc2Cl)c1 is at least 100.
0 (no)

Exam item: decide whether the reported selectivity ratio for Clc1ccc(Cl)c(Oc2ccccc2N/C(=N/c2ccccc2)NCCNc2ccnc3cc(Cl)ccc23)c1 is at least 100.
1 (yes)

Exam item: decide whether the reported selectivity ratio for COc1ccc(Oc2ccc(N/C(=N/c3cccc(Cl)c3)NCCCCNc3ccnc4cc(Cl)ccc34)cc2)cc1 is at least 100.
0 (no)

Exam item: decide whether the reported selectivity ratio for COc1ccc(Oc2ccc(N/C(=N/c3ccc(Cl)cc3)NCCNc3ccnc4cc(Cl)ccc34)cc2)cc1 is at least 100.
1 (yes)

Exam item: decide whether the reported selectivity ratio for Clc1ccc(Cl)c(Oc2ccc(N/C(=N/c3ccccc3)NCCNc3ccnc4cc(Cl)ccc34)cc2)c1 is at least 100.
1 (yes)

Exam item: decide whether the reported selectivity ratio for Clc1ccc(/N=C(\NCCCNc2ccnc3cc(Cl)ccc23)Nc2ccccc2Oc2cc(Cl)ccc2Cl)cc1 is at least 100.
1 (yes)

Exam item: decide whether the reported selectivity ratio for Clc1cccc(/N=C(\NCCCCNc2ccnc3cc(Cl)ccc23)Nc2ccc(Oc3cc(Cl)ccc3Cl)cc2)c1 is at least 100.
0 (no)

Exam item: decide whether the reported selectivity ratio for Clc1ccc(Cl)c(Oc2ccc(N/C(=N/c3ccccc3)NCCCNc3ccnc4cc(Cl)ccc34)cc2)c1 is at least 100.
1 (yes)

Exam item: decide whether the reported selectivity ratio for COC(=O)/C(C)=C/c1ccc(Oc2ccccc2N/C(=N/c2cccc(Cl)c2)NCCCNc2ccnc3cc(Cl)ccc23)cc1 is at least 100.
1 (yes)

Exam item: decide whether the reported selectivity ratio for COC(=O)/C(C)=C/c1ccc(Oc2ccccc2N/C(=N/c2cccc(Cl)c2)NCCNc2ccnc3cc(Cl)ccc23)cc1 is at least 100.
1 (yes)

Exam item: decide whether the reported selectivity ratio for COC(=O)/C(C)=C/c1ccc(Oc2ccc(N/C(=N/c3cccc(Cl)c3)NCCCCNc3ccnc4cc(Cl)ccc34)cc2)cc1 is at least 100.
0 (no)

Exam item: decide whether the reported selectivity ratio for COC(=O)/C(C)=C/c1ccc(Oc2ccc(N/C(=N/c3ccccc3)NCCCNc3ccnc4cc(Cl)ccc34)cc2)cc1 is at least 100.
0 (no)

Exam item: decide whether the reported selectivity ratio for COC(=O)/C(C)=C/c1ccc(Oc2ccccc2N/C(=N/c2ccccc2)NCCCCNc2ccnc3cc(Cl)ccc23)cc1 is at least 100.
0 (no)

Exam item: decide whether the reported selectivity ratio for Clc1ccc(Cl)c(Oc2ccccc2N/C(=N/c2ccccc2)NCCCCNc2ccnc3cc(Cl)ccc23)c1 is at least 100.
0 (no)

Exam item: decide whether the reported selectivity ratio for COC(=O)/C(C)=C/c1ccc(Oc2ccccc2N/C(=N/c2ccc(Cl)cc2)NCCCNc2ccnc3cc(Cl)ccc23)cc1 is at least 100.
0 (no)

Exam item: decide whether the reported selectivity ratio for COC(=O)/C(C)=C/c1ccc(Oc2ccc(N/C(=N/c3ccc(Cl)cc3)NCCCCNc3ccnc4cc(Cl)ccc34)cc2)cc1 is at least 100.
1 (yes)

Exam item: decide whether the reported selectivity ratio for Clc1ccc(Cl)c(Oc2ccccc2N/C(=N/c2ccccc2)NCCCNc2ccnc3cc(Cl)ccc23)c1 is at least 100.
1 (yes)

Exam item: decide whether the reported selectivity ratio for COC(=O)/C(C)=C/c1ccc(Oc2ccc(N/C(=N/c3ccccc3)NCCCCNc3ccnc4cc(Cl)ccc34)cc2)cc1 is at least 100.
0 (no)

Exam item: decide whether the reported selectivity ratio for COc1ccc(Oc2ccccc2N/C(=N/c2cccc(Cl)c2)NCCNc2ccnc3cc(Cl)ccc23)cc1 is at least 100.
1 (yes)

Exam item: decide whether the reported selectivity ratio for COc1ccc(Oc2ccc(N/C(=N/c3cccc(Cl)c3)NCCNc3ccnc4cc(Cl)ccc34)cc2)cc1 is at least 100.
0 (no)
